Below, each entry is listed with its recorded growth.
System: HL-60(TB) leukemia
Experimental details: NCI-60 one-dose screen, 48 h (100 = growth as untreated, 0 = no growth, -100 = all killed)
Measurement parameters: 10 µM unless noted
About 83,000 compounds went through this panel and 20% of them were active in at least one assay; those are over-represented in the sample as a whole.
Your answer is read as %, so omit the unit and give the number.

Compound	Assay endpoint	Unit abbrev	Numeric result
O=C(c1ccc(Cl)cc1)C1[C@H](c2ccc(Br)cc2)[C@@H](c2ccccc2)NC12C(=O)Nc1ccc(Br)cc12 (some centres undefined)	growth	%	-42.8

Asked: Item COCOc1cc2oc(C(=O)N[C@@H](Cc3ccccc3)C(O)C(=O)NCc3ccccc3)c(C)c(=O)c2cc1OCOC (some centres undefined) : provide growth
Given back: 96.5

Asked: Item `CSc1ccc(C(=O)Nc2ccc3nn(/C(C#N)=C/c4ccccn4)nc3c2)cc1` : provide growth
Given back: -21.9

Asked: Item `Cn1cc(-c2cc(N)n3nc(-c4cn(C)c5ncc(Br)cc45)cc3n2)c2cc(Br)cnc21` : provide growth
Given back: -71.2
